assay: TOR pathway RTG branch CIT2 reporter changes – S. cerevisiae, GFP fusion, multiplex flow cytometry, primary screen (AID 1870);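 note: barcoded CIT2-GFP strain pooled with four other GFP strains with rapamycin as positive control; median GFP fluorescence per well over plate mean of DMSO wells so 100% = DMSO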; details: S. cerevisiae CIT2-GFP expression, 3 h, at 10 µM, stronger effect = higher value
attribute.measured: percent response of DMSO control (%)

In [3]: df
Out[3]:
                                    compound  value
 0  CS(=O)c1ccccc1O (configuration not stated)   92.8
 1  COc1ccc(C2C(C(=O)c3ccco3)=C(O)C(=O)N2CC2CCCO2)cc1 (configuration not stated)    104
 2  CC(C)CN(C)Cc1c(C(=O)N2CCc3ccccc3C2)nc2ccc(Cl)cn12    107
 3      CC(C)(C)c1ccc(/C=C/C(=O)N2CCCCC2)cc1   78.7
 4     O=c1oc2c(CN3CCCCC3)c(O)ccc2c2c1CCCCC2    102
 5  CC1(C)CC(O)(CNCc2ccc3c(c2)OCO3)CCO1 (configuration not stated)    101
 6                   CC(C)(S)[C@@H](N)C(=O)O   87.2
 7  C#C[C@]1(O)CC[C@H]2[C@@H]3CCc4cc(O)ccc4[C@H]3CC[C@@]21C    110
 8  COc1cccc2c1OCC1COc3c(c(=O)n(C)c(=O)n3C)C21 (configuration not stated)   99.6
 9                            NC(=O)c1cnccn1   92.5
10               CC(=O)OCC#CCSc1nc2ccccc2n1C   96.7
11  CC(N=C(NC#N)Nc1ccncc1)C(C)(C)C (configuration not stated)    103
